Biological target: Melanocortin receptor 5 (Homo sapiens)
Sequence (P33032 whole entry): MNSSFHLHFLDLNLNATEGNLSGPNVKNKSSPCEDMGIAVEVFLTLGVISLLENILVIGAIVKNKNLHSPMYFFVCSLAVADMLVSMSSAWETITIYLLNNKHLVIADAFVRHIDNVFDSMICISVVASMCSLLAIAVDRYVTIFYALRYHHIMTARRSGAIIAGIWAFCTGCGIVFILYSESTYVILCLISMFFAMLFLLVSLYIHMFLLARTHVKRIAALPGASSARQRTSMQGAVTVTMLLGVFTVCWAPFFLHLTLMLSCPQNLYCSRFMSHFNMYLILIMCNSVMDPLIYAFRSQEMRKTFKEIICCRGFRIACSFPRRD
Assay: Binding affinity in competition with [125I]NDP-MSH on recombinant melanocortin 5 receptor
readout-label: Ki

INSERT INTO assay_data (compound, assay_result) VALUES
  ('COc1ccc(CNC(CCCN=C(N)N)C(=O)O)cc1OC (stereo not given)', '> 1000 nM'),
  ('COc1ccc(CN[C@H](CCCNC(=N)N)C(=O)O)c(Cl)c1OC', '> 1000 nM'),
  ('NC(N)=NCCC[C@@H](NCc1c[nH]c2ccccc12)C(=O)O', '> 1000 nM'),
  ('COc1ccc(CN[C@@H](CCCN=C(N)N)C(N)=O)cc1OC', '> 1000 nM'),
  ('N=C(N)NCCC[C@H](NCc1c[nH]c2ccccc12)C(N)=O', '> 1000 nM');
